- Tested on: AA1029
- test description: qHTS profiling for inhibitors of Plasmodium falciparum proliferation (AID 504749); also: nearly all actives have a fitted effect of over 60% in size
- details: P. falciparum in erythrocytes, SYBR Green DNA, 72 h; series mostly up to 28.7 µM
- Method: NIH National Institute of Allergy and Infectious Diseases [NIAID] NIH Chemical Genomics Center [NCGC] […] Because mature erythrocytes lack DNA, only Plasmodium-derived DNA is detected. NCGC Assay Protocol Summary: The SYBR Green viability assay was adapted from a method described previously (Plouffe et al., 2008). […] The following morning, fluorescence intensity at 485(14) nm excitation and 535(25) nm emission wavelengths was measured on an EnVision (Perkin Elmer) plate reader. […]
Inconclusive results are not listed. Active and inactive are the calls of the source. Calls follow the shape of the dose curve; as a rule, active = well fitted inhibition curve with a large enough effect; inconclusive = small, poorly fitted or top-dose-only effect; inactive = flat fitted curve, though single readings scatter.
In this exercise, the only acceptable responses are active, inactive

Exam item: What did the test return for Oc1cc(Cl)ccc1Oc1ccc(Cl)cc1Cl ?
Marked response: active

Exam item: Request: NCC(CC(=O)O)c1ccc(Cl)cc1 (stereo unspecified)
Marked response: inactive

Exam item: // next record CCC(C(N)=O)N1CCCC1=O (stereo unspecified)
Marked response: inactive

Exam item: Input CC[N+](CC)(CC)CC
Marked response: inactive

Exam item: What would you report for NCCc1cc(O)c(O)cc1O ?
Marked response: inactive

Exam item: Record: COc1ccc(C(=O)c2c(C)n(CCN3CCOCC3)c3ccccc23)cc1
Marked response: inactive

Exam item: Same question for NCC1(CC(=O)O)CCCCC1 please.
Marked response: inactive

Exam item: Same for OCCOc1ccccc1
Marked response: inactive

Exam item: # repeat for Fc1ccc(C(OCCN2CCN(CCCc3ccccc3)CC2)c2ccc(F)cc2)cc1
Marked response: active

Exam item: What do you get for Nc1ccncc1 ?
Marked response: inactive

Exam item: Field entry: C=C1CC[C@@]2(O)[C@H]3Cc4ccc(O)c5c4[C@@]2(CCN3CC2CC2)[C@H]1O5
Marked response: inactive

Value source: PubChem BioAssay (NCATS)
